I'd appreciate it if you could supply EC50 values for the items below.
measuredOn: LPA/S1P GPCR of interest (Homo sapiens, UniProt Q92633)
Sequence (Q92633 whole entry): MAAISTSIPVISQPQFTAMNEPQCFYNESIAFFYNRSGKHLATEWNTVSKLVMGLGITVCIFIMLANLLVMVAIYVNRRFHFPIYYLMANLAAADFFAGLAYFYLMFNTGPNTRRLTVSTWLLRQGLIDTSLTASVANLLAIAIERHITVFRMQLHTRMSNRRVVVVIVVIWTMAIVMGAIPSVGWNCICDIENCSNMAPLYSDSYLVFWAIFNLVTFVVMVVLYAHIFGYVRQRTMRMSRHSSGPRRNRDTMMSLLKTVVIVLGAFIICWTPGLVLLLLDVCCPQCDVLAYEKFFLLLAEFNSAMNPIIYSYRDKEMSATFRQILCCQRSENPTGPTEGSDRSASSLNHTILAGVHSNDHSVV
protocolDetails: Beta-Arrestin based assay (PathHunter)

Query string: Looking for the measured EC50 of C[C@@H](OC(=O)Nc1c(-c2ccc(-c3ccc(Oc4ccccc4C(=O)O)cc3)cc2)oc2ccccc12)c1ccccc1 (single isomer, unassigned) , can you help?
Result string: < 0.05 µM

Query string: So what's the measured EC50 for this one? C[C@@H](OC(=O)Nc1c(-c2cc3sc(-c4ccc(CC(=O)O)cc4N)cc3s2)nnn1C)c1ccccc1
Result string: > 0.5 µM

Query string: I'd like to know its EC50. The molecule in question is Cc1noc(-c2ccc(-c3ccc(Oc4cc(F)ccc4C(=O)O)cc3)cc2)c1NC(=O)O[C@H](C)c1ccccc1
Result string: < 0.05 µM

Query string: Sample Cc1noc(-c2ccc(-c3ccc(Oc4ccncc4C(=O)O)c(F)c3)cc2)c1NC(=O)O[C@H](C)c1ccccc1 — what was its EC50?
Result string: < 0.05 µM

* * *

measuredOn: LPA1 (Homo sapiens)
protocolDetails: Ca Flux LPA1 assay
pIC50: −log10 of the molar value.
propertyLabel: pIC50

Query string: Any idea what pIC50 was measured for Cc1noc(-c2ccc(-c3cc(F)c(Oc4ccccc4C(=O)O)c(F)c3)cc2)c1NC(=O)O[C@H](C)c1ccccc1 [IT316] ?
Result string: 6.30 to 7.30

Query string: Given Cc1noc(-c2ccc(-c3ccc(Oc4cccnc4C(=O)O)c(F)c3)cc2)c1NC(=O)O[C@H](C)c1ccccc1 [IT424] , state its recorded pIC50.
Result string: > 7.30

Query string: Find the recorded pIC50 belonging to Cc1nsc(-c2ccc(-c3cc(F)c(Oc4ccccc4C(=O)O)c(F)c3)cc2)c1NC(=O)O[C@H](C)c1ccccc1 [IT448] and report it.
Result string: 6.30 to 7.30

Query string: Look at this molecule and give its reported pIC50. C[C@@H](OC(=O)Nc1c(-c2cc(Cl)c(-c3cc4sc(C5(C(=O)O)CC5)cc4s3)cc2F)cnn1C)c1ccccc1 [IT282]
Result string: 6.30 to 7.30

Query string: Please report the recorded pIC50 for Cc1noc(-c2ccc(-c3cc(F)c(Oc4cccnc4C(=O)O)c(F)c3)cc2)c1NC(=O)O[C@H](C)c1ccccc1 [IT435] .
Result string: > 7.30

Query string: Would you mind telling me what pIC50 value was observed for C[C@@H](OC(=O)Nc1c(-c2cc3sc(-c4ccc(C5(C(=O)O)CC5)cc4)cc3s2)cnn1C)c1ccccc1 [IT119] ?
Result string: < 6.30

Query string: Look up pIC50 for this molecule: C[C@@H](OC(=O)Nc1c(C#Cc2nc3sc(C4(C(=O)O)CC4)cc3s2)cnn1C)c1ccccc1 [IT095]
Result string: > 7.30

* * *

For each record, write down the corresponding EC50.
measuredOn: LPA1 (Homo sapiens, UniProt Q92633)
Sequence (Q92633 whole entry): as above
protocolDetails: LPA1 Migration Assay (Oris)
details: read-out: Cell Migration EC50

Query string: State its EC50 on LPA1 (Homo sapiens, UniProt Q92633): Cc1noc(-c2ccc(-c3ccc(Oc4ccccc4C(=O)O)nn3)cc2)c1NC(=O)O[C@H](C)c1ccccc1
Result string: > 0.5 µM

Query string: Checklist item: EC50 tested on LPA1 (Homo sapiens, UniProt Q92633), entry C[C@@H](OC(=O)Nc1c(C#Cc2cc3sc(C4(C(=O)OCC(=O)N(C)C)CC4)cc3s2)cnn1C)c1ccccc1 , value?
Result string: 0.05 to 0.5 µM

Query string: Form field - read-out: EC50; system: LPA1 (Homo sapiens, UniProt Q92633); submitted item: C[C@@H](OC(=O)Nc1c(-c2cc3sc(-c4ccc5[nH]cc(CC(=O)O)c5c4)cc3s2)cnn1C)c1ccccc1
Result string: > 0.5 µM

Query string: Record Cc1noc(-c2ccc(-c3ccc(Oc4c(F)cccc4C(=O)O)cc3)cc2)c1NC(=O)O[C@H](C)c1ccccc1 : what is its EC50 with LPA1 (Homo sapiens, UniProt Q92633)?
Result string: 0.05 to 0.5 µM

Query string: Form entry - test system: LPA1 (Homo sapiens, UniProt Q92633); read-out: EC50; molecule: Cc1nsc(-c2cc(F)c(-c3ccc(C4(C(=O)O)CCOCC4)cc3)cc2F)c1NC(=O)O[C@H](C)c1ccccc1
Result string: 0.05 to 0.5 µM

Query string: For the record C[C@@H](OC(=O)Nc1c(-c2cc3sc(-c4ccc(C5(C(=O)O)CC5)c(Cl)c4)cc3s2)nnn1C)c1ccccc1 , what value of EC50 is listed for LPA1 (Homo sapiens, UniProt Q92633)?
Result string: 0.05 to 0.5 µM

Query string: Checklist item: EC50 tested on LPA1 (Homo sapiens, UniProt Q92633), entry Cc1noc(-c2ccc(-c3ccc(Oc4cccc(F)c4C(=O)O)cc3)cc2)c1NC(=O)O[C@H](C)c1ccccc1 , value?
Result string: 0.05 to 0.5 µM

* * *

measuredOn: LPA/S1P GPCR of interest (Homo sapiens, UniProt Q92633)
protocolDetails: Beta-Arrestin based assay (PathHunter)
pEC50: −log10 of the molar value.
propertyLabel: pEC50

Query string: // query pEC50 value for entry C[C@@H](OC(=O)Nc1c(-c2ccc(-c3cnc(C4(C(=O)O)CC4)s3)cc2)nnn1C)c1ccccc1 [IT278]
Result string: 6.30 to 7.30

Query string: Quick one: pEC50 of C[C@@H](OC(=O)Nc1ccncc1C#Cc1cc2sc(C3(C(=O)O)CC3)cc2s1)c1ccccc1 [IT106] ?
Result string: 6.30 to 7.30

Query string: Query (molecule): Cc1nsc(-c2cc3sc(-c4ccc5c(CC(=O)O)coc5c4)cc3s2)c1NC(=O)O[C@H](C)c1ccccc1 [IT290] ; field requested: pEC50
Result string: < 6.30

Query string: Request the reported pEC50 associated with C[C@@H](OC(=O)Nc1c(-c2cc3sc(-c4ccc(CC(=O)O)c(C(F)(F)F)c4)cc3s2)nnn1C)c1ccccc1 [IT223]
Result string: 6.30 to 7.30

Query string: For the molecule C[C@@H](OC(=O)Nc1c(-c2cc3sc(-c4cc(Cl)c(C5(C(=O)O)CC5)cc4F)cc3s2)nnn1C)c1ccccc1 [IT285] , what pEC50 is on record?
Result string: > 7.30

Query string: Reported pEC50 for C[C@@H](OC(=O)Nc1c(-c2cc3sc(-c4cc(F)c(C5(C(=O)O)CC5)cc4F)cc3s2)nnn1C)c1ccccc1 [IT348] : what is it?
Result string: > 7.30

Query string: Which pEC50 is reported for this molecule? Cc1c(C2(C(=O)O)CC2)sc2cc(C#Cc3cnn(C)c3NC(=O)O[C@H](C)c3ccccc3)sc12 [IT107]
Result string: > 7.30

* * *

measuredOn: LPA1 (Homo sapiens)
protocolDetails: LPA1 Migration Assay (Oris)
details: read-out: Cell Migration EC50
pEC50: −log10 of the molar value.
Could you please report measured pEC50 for the items listed next?

Query string: // returns reported pEC50 for input Cc1noc(-c2ccc(-c3ccc(Oc4cccnc4C(=O)O)cc3)cc2)c1NC(=O)O[C@H](C)c1ccccc1 [IT229]
Result string: 6.30 to 7.30

Query string: Suppose we examine the compound C[C@@H](OC(=O)Nc1c(-c2cc3sc(C#CC4(C(=O)O)CC4)cc3s2)cnn1C)c1ccccc1 [IT126] ; what pEC50 value has been reported?
Result string: 6.30 to 7.30

Query string: Request the reported pEC50 associated with Cc1noc(-c2ccc(-c3ccc(S(=O)(=O)C4CC4)cc3)cc2)c1NC(=O)O[C@H](C)c1ccccc1 [IT173]
Result string: < 6.30

Query string: Field request: pEC50 | item: C[C@@H](OC(=O)Nc1c(C#Cc2cc3sc(C4(C(=O)O)CC4)cc3s2)cnn1C)c1c(F)c(F)c(F)c(F)c1F [IT118]
Result string: < 6.30

* * *

Provide the recorded EC50 for the entries that follow.
measuredOn: LPA1 (Homo sapiens, UniProt Q92633)
protocolDetails: LPA1 Migration Assay (Oris)
details: read-out: Cell Migration EC50

Query string: Look at this molecule and give its reported EC50. CCOC(=O)c1cccnc1Oc1c(F)cc(-c2ccc(-c3nnn(C)c3NC(=O)O[C@H](C)c3ccccc3)cc2)cc1F [IT476]
Result string: > 500 nM

Query string: Would you mind telling me what EC50 value was observed for C[C@@H](OC(=O)Nc1c(C#Cc2ccc3cc(C4(C(=O)O)CC4)ccc3c2)cnn1C)c1ccccc1 [IT014] ?
Result string: 50 to 500 nM

Query string: Name the reported EC50 value associated with the molecule C[C@@H](OC(=O)Nc1c(-c2ccc(-c3ccc(C(C(=O)O)C4CCC4)cc3)cc2)cnn1C)c1ccccc1 (some centres unmarked) [IT151]
Result string: 50 to 500 nM

Query string: Please report the recorded EC50 for Cc1nsc(-c2cc3sc(-c4ccc(CC(=O)O)cc4)cc3s2)c1NC(=O)O[C@H](C)c1ccccc1 [IT133] .
Result string: > 500 nM

Query string: Field request: EC50 | item: C[C@@H](OC(=O)Nc1c(-c2cc(F)c(-c3cc4sc(C5(C(=O)O)CC5)cc4s3)cc2F)nnn1C)c1ccccc1 [IT071]
Result string: 50 to 500 nM

Query string: Look up EC50: Cc1nnn(-c2ccc(-c3ccc(Oc4ccccc4C(=O)O)cc3)cc2)c1NC(=O)O[C@H](C)c1ccccc1 [IT310]
Result string: > 500 nM

Query string: Form field: reported EC50 of Cc1nsc(-c2ccc(-c3cc(F)c(OC(C)(C)C(=O)O)c(F)c3)cc2)c1NC(=O)O[C@H](C)c1ccccc1 [IT502]
Result string: > 500 nM

Query string: What measured EC50 goes with Cc1noc(-c2ccc(-c3ccc(Oc4ccncc4C(=O)O)cc3)cc2)c1NC(=O)O[C@H](C)c1ccccc1 [IT227] ?
Result string: < 50 nM

Query string: I am curious: what EC50 value has been reported for C[C@@H](OC(=O)Nc1c(-c2cc(F)c(-c3ccc(C4(C(=O)O)CC4)cc3)cc2F)nn2ccccc12)c1ccccc1 [IT049] ?
Result string: 50 to 500 nM

Query string: EC50 lookup needed for C[C@@H](OC(=O)Nc1c(-c2cc3sc(-c4cc(F)c(CC(=O)O)c(F)c4)cc3s2)cnn1C)c1ccccc1 [IT157] , thanks.
Result string: > 500 nM

Query string: What value of EC50 has been recorded for this entry: Cc1noc(-c2ccc(-c3ccc(Oc4ncncc4C(=O)O)cc3)cc2)c1NC(=O)O[C@H](C)c1ccccc1 [IT230]
Result string: 50 to 500 nM

Query string: Endpoint output: EC50 of Cc1nsc(-c2ccc(-c3ccc(OC(C)(C)C(=O)O)c(F)c3)cc2)c1NC(=O)O[C@H](C)c1ccccc1 [IT507] . Value?
Result string: > 500 nM

Query string: Would you kindly share the measured EC50 for Cc1nsc(-c2cc3sc(-c4ccc(CC(=O)O)s4)cc3s2)c1NC(=O)O[C@H](C)c1ccccc1 [IT148] ?
Result string: > 500 nM

Query string: What value of EC50 has been recorded for this entry: Cc1cc(C2(C(=O)O)CC2)c(F)cc1-c1cc2sc(-c3nnn(C)c3NC(=O)O[C@H](C)c3ccccc3)cc2s1 [IT341]
Result string: 50 to 500 nM

Query string: Given C[C@@H](OC(=O)Nc1c(-c2ccc(-c3cc(F)c(OC4(C(=O)O)CC4)c(F)c3)cc2)oc2ccccc12)c1ccccc1 [IT491] , state its recorded EC50.
Result string: > 500 nM

Query string: # EC50 lookup, item C[C@@H](OC(=O)Nc1c(-c2ccc(-c3cc(F)c(Oc4ccsc4C(=O)O)c(F)c3)cc2)cnn1C)c1ccccc1 [IT465]
Result string: < 50 nM

Query string: For the molecule C[C@@H](OC(=O)Nc1c(-c2cc3sc(-c4cc(Cl)c(CC(=O)O)cc4F)cc3s2)cnn1C)c1ccccc1 [IT187] , what EC50 is on record?
Result string: > 500 nM

Query string: Dear colleague, I am looking for the recorded EC50 of the following molecule: Cc1noc(-c2ccc(-c3ccc4c(c3)CCCC4C(=O)O)cc2)c1NC(=O)O[C@H](C)c1ccccc1 (mixture of isomers) [IT039]
Result string: > 500 nM

Query string: # get_value(readout='EC50', item= C[C@@H](OC(=O)Nc1c(-c2ccc(-c3ccc(OC4(C(=O)O)CC4)cc3)cc2)cnn1C)c1ccccc1 [IT511] )
Result string: 50 to 500 nM

Query string: Query: EC50; subject: C[C@@H](OC(=O)Nc1c(-c2ccc(-c3ccc(C4(C(=O)O)CC4)cc3)cc2)nc2ncccn12)c1ccccc1 [IT043]
Result string: 50 to 500 nM

Query string: Requested field: EC50. Item: Cc1noc(-c2ccc(-c3ccc(Oc4ccncc4C(=O)O)c(F)c3)cc2)c1NC(=O)O[C@H](C)c1ccccc1 [IT423]
Result string: 50 to 500 nM

Query string: Please give the measured EC50 for this molecule: COc1ccccc1OC(=O)C1(c2cc3sc(C#Cc4cnn(C)c4NC(=O)O[C@H](C)c4ccccc4)cc3s2)CC1 [IT088]
Result string: 50 to 500 nM

Query string: Which measured EC50 value corresponds to C[C@@H](OC(=O)Nc1c(-c2ccc(-c3ccc(OC4(C(=O)O)CC4)cc3)cc2)oc2ccccc12)c1ccccc1 [IT512] ?
Result string: > 500 nM

Query string: # EC50 lookup, item C[C@@H](OC(=O)Nc1c(-c2cc3sc(-c4cc(F)c(C5(C(=O)O)CC5)c(F)c4)cc3s2)cnn1C)c1ccccc1 [IT261]
Result string: 50 to 500 nM

Query string: Requested field: EC50. Item: C[C@@H](OC(=O)Nc1c(-c2ccc(-c3ccc(C(C(=O)O)C4COC4)cc3)cc2)cnn1C)c1ccccc1 (some centres unmarked) [IT150]
Result string: 50 to 500 nM

Query string: Which measured EC50 value corresponds to C[C@@H](OC(=O)Nc1c(-c2ccc(-c3cc(F)c(Oc4cccnc4C(=O)O)c(F)c3)cc2)nnn1C)c1ccccc1 [IT452] ?
Result string: < 50 nM

Query string: What value of measured EC50 is listed for Cc1nsc(-c2ccc(-c3cc(F)c(Oc4ccccc4C(=O)O)c(F)c3)cc2)c1NC(=O)O[C@H](C)c1ccccc1 [IT448] ?
Result string: 50 to 500 nM

Query string: Tell me the measured EC50 of Cc1noc(-c2ccc(-c3cc(F)c(OC(C)(C)C(=O)O)c(F)c3)cc2)c1NC(=O)O[C@H](C)c1ccccc1 [IT500] , please.
Result string: 50 to 500 nM

Query string: Item Cc1noc(-c2ccc(-c3ccc(Oc4ccc(F)cc4C(=O)O)cc3)cc2)c1NC(=O)O[C@H](C)c1ccccc1 [IT459] has what recorded EC50?
Result string: 50 to 500 nM

Hello, the source for this data is patent US20140213538A1, in case you need it.
